Answer each item with its documented viability, T/C.
# Tested on: SUM149PT spheroids with HUVEC/MSC, viability
# TEST_DESCRIPTION: Anticancer human tumor SUM149PT cell line growth inhibition [GQUAD];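 further: spheroids exposed to drugs for seven days before readout; percent viability relative to DMSO vehicle control taken as 100%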
# CONDITIONS_USED: second compound 1 µM; first compound 0.0316 µM; hits give low values
Please respond with the number in % and leave the unit unwritten.

viability, T/C in this record for C=CCn1c(=O)c2cnc(Nc3ccc(N4CCN(C)CC4)cc3)nc2n1-c1cccc(C(C)(C)O)n1 + Cc1cnc(CNC(=O)c2c(=O)c3ccc(N4CCCN(C)CC4)nc3n3c2sc2ccccc23)cn1 : 34.5

viability, T/C in this record for COc1ccc([C@@H](O)c2cc(-c3ncnc4cc(N5CCOCC5)ccc34)c(F)cc2Cl)nn1 + CN(C)c1ccc(Nc2c3ccc(NC(=O)CCN4CCCC4)cc3nc3cc(NC(=O)CCN4CCCC4)ccc23)cc1 : 91.5

viability, T/C in this record for COc1ccc([C@@H](O)c2cc(-c3ncnc4cc(N5CCOCC5)ccc34)c(F)cc2Cl)nn1 + Cc1[nH]c2ccc(F)cc2c1-c1nc2c3cccnc3c3ncccc3c2[nH]1 : 102

viability, T/C in this record for COc1cccc2c1C(=O)c1c(O)c3c(c(O)c1C2=O)CC(O)(C(=O)CO)CC3OC1CC(N)C(O)C(C)O1 (stereo unspecified) + CN(C)c1ccc(Nc2c3ccc(NC(=O)CCN4CCCC4)cc3nc3cc(NC(=O)CCN4CCCC4)ccc23)cc1 : 73.5

viability, T/C in this record for CC1COCCN1c1cc(-c2ccnn2C)c2ccnc(-c3ccn[nH]3)c2n1 (stereo unspecified) + Cc1cnc(CNC(=O)c2c(=O)c3ccc(N4CCCN(C)CC4)nc3n3c2sc2ccccc23)cn1 : 21.4

viability, T/C in this record for Cn1ncnc1[C@H]1c2n[nH]c(=O)c3cc(F)cc(c23)N[C@@H]1c1ccc(F)cc1 + Cc1[nH]c2ccc(F)cc2c1-c1nc2c3cccnc3c3ncccc3c2[nH]1 : 88

viability, T/C in this record for CC1COCCN1c1cc(C2(S(C)(=N)=O)CC2)nc(-c2ccnc3[nH]ccc23)n1 (stereo unspecified) + CN(C)c1ccc(Nc2c3ccc(NC(=O)CCN4CCCC4)cc3nc3cc(NC(=O)CCN4CCCC4)ccc23)cc1 : 90.4

viability, T/C in this record for CC1COCCN1c1cc(C2(S(C)(=N)=O)CC2)nc(-c2ccnc3[nH]ccc23)n1 (stereo unspecified) + Cc1[nH]c2ccc(F)cc2c1-c1nc2c3cccnc3c3ncccc3c2[nH]1 : 91.9

viability, T/C in this record for COc1ncnc(C2CC2)c1-c1ncc2cnn(Cc3ccc(-c4nc(C(F)(F)F)cn4C(C)C)cc3)c2n1 + CN(C)c1ccc(Nc2c3ccc(NC(=O)CCN4CCCC4)cc3nc3cc(NC(=O)CCN4CCCC4)ccc23)cc1 : 79

viability, T/C in this record for O=C(c1cc(Cc2n[nH]c(=O)c3ccccc23)ccc1F)N1CCN(C(=O)C2CC2)CC1 + Cc1[nH]c2ccc(F)cc2c1-c1nc2c3cccnc3c3ncccc3c2[nH]1 : 99.9

viability, T/C in this record for CC[C@@]1(O)C(=O)OCc2c1cc1n(c2=O)Cc2cc3c(CN(C)C)c(O)ccc3nc2-1 + CN(C)c1ccc(Nc2c3ccc(NC(=O)CCN4CCCC4)cc3nc3cc(NC(=O)CCN4CCCC4)ccc23)cc1 : 78.3
